MEASUREMENT_TARGET: mouse alpha 2B receptor (m α2B) (Mus musculus, UniProt P30545)
Construct: expressed in transfected cells
EXPERIMENT_DESCRIPTION: FLIPR calcium flux assay in HEK 293 m α2B/Gqi5 cells (Fluo-4 dye)
Format: cell-based
CONDITION: FIG. 2, second experiment; 35° C.; 96 well
MEASUREMENT_TYPE: EC50 (µM)
Give bare numbers, in µM.

Prompt: Would you mind telling me what EC50 value was observed for O=C1C2=C(CCCC2)CCC1CC1CN=CN1 (stereo not shown) ?
Completion: 0.129

====

For each of the compounds below, state its pEC50.
MEASUREMENT_TARGET: mouse alpha 2B receptor (m α2B) (Mus musculus, UniProt P30545)
Construct: expressed in transfected cells
Sequence (P30545 1-453): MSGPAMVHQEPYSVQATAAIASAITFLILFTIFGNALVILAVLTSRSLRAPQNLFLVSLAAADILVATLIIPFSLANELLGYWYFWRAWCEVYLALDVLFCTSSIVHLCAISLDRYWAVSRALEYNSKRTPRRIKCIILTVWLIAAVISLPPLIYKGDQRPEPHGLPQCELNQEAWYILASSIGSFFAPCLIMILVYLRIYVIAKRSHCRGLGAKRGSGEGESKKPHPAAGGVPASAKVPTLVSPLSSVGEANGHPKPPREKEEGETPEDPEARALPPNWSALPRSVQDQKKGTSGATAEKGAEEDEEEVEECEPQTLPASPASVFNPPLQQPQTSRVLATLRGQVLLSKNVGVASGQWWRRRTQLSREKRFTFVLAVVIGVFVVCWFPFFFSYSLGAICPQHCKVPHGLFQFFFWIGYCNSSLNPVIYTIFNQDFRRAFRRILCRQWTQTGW
EXPERIMENT_DESCRIPTION: FLIPR calcium flux assay in HEK 293 m α2B/Gqi5 cells (Fluo-4 dye)
Format: cell-based
CONDITION: 32° C.; FIG. 4B
Numbers only, as −log10 of the molar value.

# COMPOUND, pEC50
data = [
    ("OCCNC(=S)NCc1cccc(Cl)c1F", 6.47),
]

// below: pEC50 requested for another compound
Prompt: Form: Entry = c1ncc(CC2CCC3=C(CCCC3)C2)[nH]1 (centres unmarked) | System = mouse alpha 2B receptor (m α2B) (Mus musculus, UniProt P30545) | pEC50 = ____
Completion: 6.52

Where do these numbers come from? They come from patent US7655396B1.
